These measurements were taken from ChEMBL document CHEMBL4376843.

Please respond with reported IC50 for every item in the list.
# System: PC-3
# experiment.notes: cells
# Assay type: functional, cell-based
# condition.context: Homo sapiens, PC-3, 72 h
# Description: Antiproliferative activity against human PC3 cells measured after 72 hrs under normoxic condition by MTT assay
Dear colleague, please return just the value in µM, with no unit written.

So the reported IC50 for `Cc1cc(C)c2c(c1)S(=O)(=O)NC(=O)N2` , on PC-3, turned out to be 6.31

So the reported IC50 for `O=C1Nc2c(Cl)cccc2S(=O)(=O)N1` , on PC-3, turned out to be 16.2

So the reported IC50 for `O=C1Nc2ccccc2S(=O)(=O)N1` , on PC-3, turned out to be 14

So the reported IC50 for `CN1C(=O)NS(=O)(=O)c2ccccc21` , on PC-3, turned out to be 23.8

So the reported IC50 for `O=C1Nc2ccc(F)cc2S(=O)(=O)N1` , on PC-3, turned out to be 12
